B1: EPB41L3 (parent)
chain: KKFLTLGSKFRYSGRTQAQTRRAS

variants of: B1; assay: protein stability index of a GFP-peptide fusion (GPS, HEK-293T) (PSI 1-6); higher = more stable; details: c terminus: a fixed tail appended;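 note: lentivirally expressed fusions sorted by FACS into six bins by GFP to DsRed ratio, PSI derived from sequencing read proportions per bin multiplied by bin number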
Threshold rule: protein stability index greater than or equal to 3 is Criterion met; below that, Criterion not met.

1. KKFLTLGSKFRYSGRTQAQTRLAS [R22L] ... Criterion not met
2. KKFLTLGSKFRYSGRDQAQTRRAS [T16D] ... Criterion not met
3. KKFLTLGSKFRYSGRTQAQTVRAS [R21V] ... Criterion met
4. KKFMTLGSKFRYSGRTQAQTRRAS [L4M] ... Criterion met
5. KKFLTLGSKFRYSGRTQAQTRRDS [A23D] ... Criterion not met
6. KKFLTLGSKFRYSGRTQKQTRRAS [A18K] ... Criterion not met
7. WKFLTLGSKFRYSGRTQAQTRRAS [K1W] ... Criterion not met
8. KKFLGLGSKFRYSGRTQAQTRRAS [T5G] ... Criterion met
9. KKFLTLGSKFRYSGRTQAQLRRAS [T20L] ... Criterion not met
10. KKFITLGSKFRYSGRTQAQTRRAS [L4I] ... Criterion not met
11. KKFLTLGSKFRYSGNTQAQTRRAS [R15N] ... Criterion not met
12. KKFLTLGSKFRYSGRTKAQTRRAS [Q17K] ... Criterion not met
13. KKFLTLGSKFAYSGRTQAQTRRAS [R11A] ... Criterion met
14. KKFLTPGSKFRYSGRTQAQTRRAS [L6P] ... Criterion met
15. KKFLTLGSKFRYKGRTQAQTRRAS [S13K] ... Criterion met
16. KKFLTLGPKFRYSGRTQAQTRRAS [S8P] ... Criterion not met
17. KKFLTLGSDFRYSGRTQAQTRRAS [K9D] ... Criterion not met
18. KKFLTLGSKFRYSGRTQAQTRPAS [R22P] ... Criterion not met
19. KKFLTLGSKFRYSGRTQAQIRRAS [T20I] ... Criterion met
